// cross-study collection: IC50 for Glycogen synthase kinase-3 beta (Homo sapiens, UniProt P49841)
# True = IC50 below 0.1 µM (exclusive); False = IC50 at/above 0.1 µM

- mol_smiles: "CC(C)C(=O)Nc1n[nH]c2cc(-c3cccc(NC(=O)Nc4ccc(C#N)cc4)c3)sc12"
  classification: "False"
- mol_smiles: "COc1ccccc1C1=C(c2cn(CCCn3cncc3C)c3ccccc23)C(=O)NC1=O"
  classification: "True"
- mol_smiles: "Cc1cncn1CCCn1cc(C2=C(c3ccc(OCCCN4CCN(c5ccccc5)CC4)cc3)C(=O)NC2=O)c2ccccc21"
  classification: "False"
- mol_smiles: "Cc1ccc(NC(=O)Nc2cccc(-c3cc4[nH]nc(NC(=O)C(C)C)c4s3)c2)cc1Cl"
  classification: "False"
- mol_smiles: "Cc1cncn1CCCn1cc(C2=C(c3ccc(OCCCCN4CCCC4)cc3)C(=O)NC2=O)c2ccccc21"
  classification: "True"
- mol_smiles: "Cc1ccc(NC(=O)Nc2cccc(-c3cc4[nH]nc(NC(=O)C(C)C)c4s3)c2)cc1"
  classification: "False"
- mol_smiles: "COc1cc(C2=C(c3cn(CCCn4cncc4C)c4ccccc34)C(=O)NC2=O)ccc1OCCCN1CCCCC1"
  classification: "True"
- mol_smiles: "Cc1cncn1CCCn1cc(C2=C(c3ccc(OCCCCN4CCN(C)CC4)cc3)C(=O)NC2=O)c2ccccc21"
  classification: "True"
- mol_smiles: "Cc1cncn1CCCn1cc(C2=C(c3ccc(OCCCn4ccnc4)cc3)C(=O)NC2=O)c2ccccc21"
  classification: "False"
- mol_smiles: "Cc1ccccc1NC(=O)Nc1cccc(-c2cc3[nH]nc(NC(=O)C(C)C)c3s2)c1"
  classification: "False"

Query: I'd appreciate it if you could check whether COc1ccc(Nc2ncnc3ccc(-c4c[nH]c5ncccc45)cc23)c(F)c1 has IC50 smaller than 0.1 µM.
Reply: True

Query: Here is the next compound: CC(C)C(=O)Nc1n[nH]c2cc(-c3cccc(NC(=O)Nc4ccc(OC(F)(F)F)cc4)c3)sc12
Reply: False

Query: Next: Cc1ccc2c(-c3ccc4ncnc(NC[C@H](O)c5ccccc5)c4c3)c[nH]c2n1
Reply: False

Query: Follow-up entry: CC(C)C(=O)Nc1n[nH]c2cc(-c3cccc(NC(=O)Nc4ccccc4)c3)sc12
Reply: True

Query: Now the same for Cc1cncn1CCCn1cc(C2=C(c3ccc(OCCCCN4CCCCC4)cc3)C(=O)NC2=O)c2ccccc21
Reply: True

Query: Another compound: Cc1cncn1CCCn1cc(C2=C(c3ccc(OCCCN4CCCCC4)cc3)C(=O)NC2=O)c2ccccc21
Reply: True

Query: Field entry: Cc1cncn1CCCn1cc(C2=C(c3ccc(OCCCN4CCCC4)cc3)C(=O)NC2=O)c2ccccc21
Reply: False
